# ΔTm per entry for Casein kinase I isoform gamma-1 (Homo sapiens)
Give bare numbers, in °C.

>  <molecule>
COc1cc(C[C@H]2C(=O)OC[C@@H]2Cc2ccc(OC)c(OC)c2)ccc1O [ARCTIGENIN]

>  <value_unit>
°C

>  <ΔTm>
0

$$$$
>  <molecule>
COc1cc(OC)c(/C=C2\C(=O)Nc3ccccc32)c(OC)c1

>  <value_unit>
°C

>  <ΔTm>
0.5

$$$$
>  <molecule>
NC(=O)c1ccc(-c2nc(-c3ccc4c(c3)OCCO4)c(-c3ccccn3)[nH]2)cc1

>  <value_unit>
°C

>  <ΔTm>
0.4

$$$$
>  <molecule>
CCOc1ccc(/C=C2/SC(=O)N(CCN)C2=O)cc1 [HIAZOLIDINEDIONE1]

>  <value_unit>
°C

>  <ΔTm>
0.3

$$$$
>  <molecule>
Oc1cccc(-c2nc(N3CCOCC3)c3oc4ncccc4c3n2)c1

>  <value_unit>
°C

>  <ΔTm>
0.4

$$$$
>  <molecule>
NC1=NC(=O)/C(=C2\CCNC(=O)c3[nH]c(Br)cc32)N1 [HYMENIALDISINE]

>  <value_unit>
°C

>  <ΔTm>
5.7

$$$$
>  <molecule>
CN(C)C[C@@H]1CCn2cc(c3ccccc32)C2=C(C(=O)NC2=O)c2cn(c3ccccc23)CCO1 [RUBOXISTAURIN]

>  <value_unit>
°C

>  <ΔTm>
0.5

$$$$
>  <molecule>
CCN1/C(=C/C(C)=O)Sc2ccc(OC)cc21

>  <value_unit>
°C

>  <ΔTm>
2.5

$$$$
>  <molecule>
N#CCCc1ccc2c(c1)-c1[nH]c3ccc([N+](=O)[O-])cc3c1CC(=O)N2 [ALSTERPAULLONE 2]

>  <value_unit>
°C

>  <ΔTm>
2.4

$$$$
>  <molecule>
Cc1nc2sccn2c(=O)c1CCN1CCC(=C(c2ccccc2)c2ccc(F)cc2)CC1

>  <value_unit>
°C

>  <ΔTm>
-0.2

$$$$

Hey, can you go through the list below and give me ΔTm for every item?
1. CCCNC(=O)Nc1ccc(Oc2ncnc3cc(OC)c(OC)cc23)cc1Cl [KRN-633]
2. Cc1c2ccncc2c(C)c2c1[nH]c1ccccc12 [ELLIPTECINE]
3. Nc1n[nH]c2nnc(-c3c(-c4ccccc4)nn4ccccc34)cc12
4. Cc1cncc2cccc(S(=O)(=O)N3CCCNC[C@@H]3C)c12

Solution:
1. 0.8
2. 0.6
3. 0.9
4. 0

Batch: ΔTm for all items listed.
1. COc1cccc(-c2cc(=O)c3ccccc3o2)c1N
2. CC(=O)O/N=C1/C(=C2/C(=O)Nc3cc(Br)ccc32)Nc2ccccc21 [6-BROMOINDIRUBIN-3'-ACETOXIME]
3. Cn1cc(C2=C(c3cn(CCCN)c4ccccc34)C(=O)NC2=O)c2ccccc21
4. CCOc1cc2ncnc(Nc3cccc(Br)c3)c2cc1OCC
5. Cc1ccc(NC(=O)c2ccc(CN3CCN(C)CC3)cc2)cc1Nc1nccc(-c2cccnc2)n1
6. COc1cc2c(cc1OC)-c1n[nH]c(Nc3cccc(F)c3)c1C2

Solution:
1. 0.1
2. 0.6
3. 0.5
4. 1.2
5. 0.5
6. 0.7

----------
Target or system Serine/threonine-protein kinase pim-1 (Homo sapiens) (UniProt P11309): recorded ΔTm listed per item.
Answers are plain numbers, in °C.

>  <molecule>
O=C1Nc2ccccc2/C1=C/c1cnc[nH]1

>  <number>
3

$$$$
>  <molecule>
COC(=O)[C@]1(O)C[C@@H]2O[C@@]1(C)n1c3ccccc3c3c4c(c5c6ccccc6n2c5c31)C(=O)NC4 (single isomer, unassigned)

>  <number>
3.7

$$$$
>  <molecule>
CC(C)c1nn(-c2c(Cl)cccc2Cl)c2nc(Cc3ccc(OCCO)cc3)[nH]c(=O)c12

>  <number>
0

$$$$
>  <molecule>
O=c1c(-c2ccc(F)cc2)c(-c2ccncc2)[nH]n1-c1ccc(Cl)cc1

>  <number>
-0.1

$$$$
>  <molecule>
N#C/C(=C\c1ccc(O)c(O)c1)C(=O)Nc1ccccc1

>  <number>
1.6

$$$$
>  <molecule>
Cn1cc(C2=C(c3cn(CCCSC(=N)N)c4ccccc34)C(=O)NC2=O)c2ccccc21

>  <number>
9.7

$$$$
>  <molecule>
Nc1n[nH]c2nc3ccccc3nc12

>  <number>
-0.8

$$$$
>  <molecule>
O=C1Nc2cc(Br)ccc2/C1=C1/Nc2ccccc2/C1=N\O

>  <number>
0.1

$$$$
>  <molecule>
CSc1nc(-c2ccc(F)cc2)c(-c2ccnc(NC(C)c3ccccc3)c2)[nH]1 (racemic)

>  <number>
-0.4

$$$$
>  <molecule>
O=C(O)Cc1ccc(O)c([N+](=O)[O-])c1

>  <number>
0.2

$$$$

Okay, here is my list. What is ΔTm for each of these?
1. CC(C)c1cc(/C=C(\C#N)C(=O)NCCCc2ccccc2)cc(C(C)C)c1O
2. CCOC(=O)c1c(C)[nH]c(/C=C2\C(=O)Nc3ccccc32)c1C
3. CC(C)N(CCO)c1nc(Nc2cccc(Cl)c2)c2ncn(C(C)C)c2n1
4. C#Cc1cccc(Nc2ncnc3cc(OCCOC)c(OCCOC)cc23)c1
5. N#CC(C#N)=Cc1ccc(O)c(O)c1
6. COc1cc(O)c2c(c1)oc(=O)c1c3cc(O)c(O)cc3oc21
7. Cl.Cn1cc(C2=C(c3ccc4cc5n(c4c3)CCC(CN)C5)C(=O)NC2=O)c2ccccc21 (stereo not given)
8. Cn1cc(/C=C2/C(=O)Nc3ccc(S(N)(=O)=O)cc32)c2ccccc21

Solution:
[0.8, -0.1, -1.1, 0, 1.5, 3.4, 6.3, 3.1]

// batch mode: one ΔTm value per listed entry
1. O=c1c(-c2ccc(O)cc2)coc2cc(O)cc(O)c12
2. C[S+]([O-])c1ccc(-c2nc(-c3ccc(F)cc3)c(-c3ccncc3)[nH]2)cc1 (stereo not given)

Solution:
3.3
-2.1
